Assign MAX_MED to each entry below.
Tested on: BRA (mesoderm marker) in RUES2-GLR cells
Experiment: DevTox GLR-Endo assay: increase in percent BRA-positive cells (AEID 3096, Bra_up)
Format: cell-based, human
Details: tcpl plot AEID3096, maximum median response
Reply with just the number (in Percent Activity).

*Q* // fetch BRA (mesoderm marker) in RUES2-GLR cells MAX_MED for CC1(C)S[C@@H]2[C@H](NC(=O)Cc3ccccc3)C(=O)N2[C@H]1C(=O)O
*A* 0.92

*Q* // fetch BRA (mesoderm marker) in RUES2-GLR cells MAX_MED for CN(C)CCOC(c1ccccc1)c1ccccc1 [Diphenhydramine]
*A* 1.58

*Q* // fetch BRA (mesoderm marker) in RUES2-GLR cells MAX_MED for CC(O)CO (centres unmarked)
*A* 0.955

*Q* // fetch BRA (mesoderm marker) in RUES2-GLR cells MAX_MED for CC(=O)Nc1ccc(O)cc1
*A* 0.865

*Q* // fetch BRA (mesoderm marker) in RUES2-GLR cells MAX_MED for CCCc1cc(=O)[nH]c(=S)[nH]1
*A* 0.969

*Q* // fetch BRA (mesoderm marker) in RUES2-GLR cells MAX_MED for CC(=O)CC(c1ccccc1)c1c(O)c2ccccc2oc1=O (centres unmarked)
*A* 0.975

*Q* // fetch BRA (mesoderm marker) in RUES2-GLR cells MAX_MED for COC(=O)c1ccccc1C(=O)OC [Dimethyl Phthalate]
*A* 0.835

*Q* // fetch BRA (mesoderm marker) in RUES2-GLR cells MAX_MED for CC(=O)Oc1ccccc1C(=O)O
*A* 1.03

*Q* // fetch BRA (mesoderm marker) in RUES2-GLR cells MAX_MED for Cc1cn([C@H]2C=C[C@@H](CO)O2)c(=O)[nH]c1=O
*A* 1.06

*Q* // fetch BRA (mesoderm marker) in RUES2-GLR cells MAX_MED for O=C(O)c1cc(/N=N/c2ccc(S(=O)(=O)Nc3ccccn3)cc2)ccc1O
*A* 0.948

*Q* // fetch BRA (mesoderm marker) in RUES2-GLR cells MAX_MED for O=C(c1ccc(F)cc1)C1CCN(CCn2c(=O)[nH]c3ccccc3c2=O)CC1
*A* 2.05

Data credit: paper PMC9321663
